target: CIB1 and αIIb interaction (CIB1-GST : F-αIIb peptide) (Homo sapiens)
Construct: made in house; host or cells: BL-21 plus RIL cells (E. coli)
Sequence (Q99828 whole entry): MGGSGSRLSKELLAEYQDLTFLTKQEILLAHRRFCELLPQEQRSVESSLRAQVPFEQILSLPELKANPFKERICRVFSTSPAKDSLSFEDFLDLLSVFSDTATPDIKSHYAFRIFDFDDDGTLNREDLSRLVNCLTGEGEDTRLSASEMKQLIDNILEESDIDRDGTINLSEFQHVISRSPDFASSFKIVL
procedure-summary: FP assay, 1536-well qHTS format (primary and confirmatory screen)
Format: binding
conditions-used: qHTS primary screen of LOPAC/NPACT libraries; negative sign = inhibitory curve
Listing of entries alongside the reported Curve Class.
Write the value as a bare number.

compound	Curve Class
COc1cc(SC)ccc1C(=O)N1CCC(Cc2ccccc2)CC1 [NCGC00167816-02]	-1.4
COc1cc(/C=C(\C#N)C(=O)Nc2nnc(C(F)(F)F)s2)ccc1OCc1ccc(C(F)(F)F)cc1C(F)(F)F [NCGC00165952-02]	-1.4
CC(C)c1cc(F)cc2c1C[C@](CCN(C)CCCc1nc3ccccc3[nH]1)(OC(=O)C1CC1)CC2 [NCGC00162214-02]	-2.2

--- query ---
IN: Entry under review: N#CC(=C(\N)Sc1ccccc1N)/C(C#N)=C(/N)Sc1ccccc1N [NCGC00094462-03] . Reported Curve Class?
OUT: -3

---

Listing of entries alongside the reported COUNTERSCREEN Efficacy (%).
target: GST-CIB1 : F-scrambled peptide (Homo sapiens, UniProt Q99828)
Construct: made in house; host or cells: BL-21 plus RIL cells (E. coli)
procedure-summary: FP scrambled-peptide counter screen, 1536-well format
Format: binding
conditions-used: scrambled-peptide counterscreen
Please state the figure in %; there is no need to write the unit.

Look over these answered cases.
compound	numeric-result
O=C1C(I)=CC(=C(c2cc(I)c([O-])c(I)c2)c2ccccc2C(=O)[O-])C=C1I.[Na+].[Na+]	435
Cc1ccc(C(=O)Nc2ccc(S(=O)(=O)O)c3cc(S(=O)(=O)O)cc(S(=O)(=O)O)c23)cc1NC(=O)c1cccc(NC(=O)Nc2cccc(C(=O)Nc3cc(C(=O)Nc4ccc(S(=O)(=O)O)c5cc(S(=O)(=O)O)cc(S(=O)(=O)O)c45)ccc3C)c2)c1	16
CSC(Cc1ccc(Cl)cc1)C(=O)Nc1ccc(Cl)cc1C(=O)O.O=C(O)C(F)(F)F (stereo not shown)	0

IN: Entry under review: `COc1cc(/C=C2/N=C(c3ccccc3)OC2=O)c(F)cc1OCc1ccccc1` . Reported COUNTERSCREEN Efficacy (%)?
OUT: -24

IN: Entry under review: `CC(=O)N1CCN(c2ccc(OCc3nn(C)c(C)c3-c3cccc4c(CCCOc5cccc6ccccc56)c(C(=O)O)n(Cc5cccnc5)c34)cc2)CC1` . Reported COUNTERSCREEN Efficacy (%)?
OUT: -33

IN: Entry under review: `Cc1ccc(S(=O)(=O)Nc2cnccc2C(=O)Nc2nc(-c3ccc4c(c3)CCCC4)cs2)cc1.O=C(O)C(F)(F)F` . Reported COUNTERSCREEN Efficacy (%)?
OUT: -23

IN: Entry under review: Brc1c(Br)c(Br)c2[nH]nnc2c1Br [NCGC00092352-04, 4,5,6,7-tetrabromobenzotriazole, reference compound] . Reported COUNTERSCREEN Efficacy (%)?
OUT: 79

IN: Entry under review: `CCOC(=O)c1nnc(NS(=O)(=O)c2ccc(NC(=O)Cc3ccc(Cl)c(Cl)c3)cc2)s1.O=C(O)C(F)(F)F` . Reported COUNTERSCREEN Efficacy (%)?
OUT: 66

IN: Entry under review: `Cc1cc(NS(=O)(=O)c2ccc(NCCc3ccc(Cl)c(Cl)c3)cc2)no1.O=C(O)C(F)(F)F` . Reported COUNTERSCREEN Efficacy (%)?
OUT: 132

IN: Entry under review: `C=CCNc1oc(-c2ccc(-c3ccccc3)cc2)nc1C#N.O=C(O)C(F)(F)F` . Reported COUNTERSCREEN Efficacy (%)?
OUT: -17

IN: Entry under review: `O=C(O)C(F)(F)F.O=C(O)c1ccc(-c2ccc3ncnc(NCc4nccs4)c3c2)o1` . Reported COUNTERSCREEN Efficacy (%)?
OUT: -21

IN: Entry under review: `Oc1c(Cl)cc(Cl)c(Cl)c1Cc1c(O)c(Cl)cc(Cl)c1Cl` . Reported COUNTERSCREEN Efficacy (%)?
OUT: 106

IN: Entry under review: `O=C(O)C(F)(F)F.OCc1ccc(-c2ccc3ncnc(NCc4cccs4)c3c2)o1` . Reported COUNTERSCREEN Efficacy (%)?
OUT: 0

// data source = paper PMC11249646
